molecular target: KDM3A (JMJD1A) (Homo sapiens, UniProt Q9Y4C1)
Sequence (Q9Y4C1 whole entry): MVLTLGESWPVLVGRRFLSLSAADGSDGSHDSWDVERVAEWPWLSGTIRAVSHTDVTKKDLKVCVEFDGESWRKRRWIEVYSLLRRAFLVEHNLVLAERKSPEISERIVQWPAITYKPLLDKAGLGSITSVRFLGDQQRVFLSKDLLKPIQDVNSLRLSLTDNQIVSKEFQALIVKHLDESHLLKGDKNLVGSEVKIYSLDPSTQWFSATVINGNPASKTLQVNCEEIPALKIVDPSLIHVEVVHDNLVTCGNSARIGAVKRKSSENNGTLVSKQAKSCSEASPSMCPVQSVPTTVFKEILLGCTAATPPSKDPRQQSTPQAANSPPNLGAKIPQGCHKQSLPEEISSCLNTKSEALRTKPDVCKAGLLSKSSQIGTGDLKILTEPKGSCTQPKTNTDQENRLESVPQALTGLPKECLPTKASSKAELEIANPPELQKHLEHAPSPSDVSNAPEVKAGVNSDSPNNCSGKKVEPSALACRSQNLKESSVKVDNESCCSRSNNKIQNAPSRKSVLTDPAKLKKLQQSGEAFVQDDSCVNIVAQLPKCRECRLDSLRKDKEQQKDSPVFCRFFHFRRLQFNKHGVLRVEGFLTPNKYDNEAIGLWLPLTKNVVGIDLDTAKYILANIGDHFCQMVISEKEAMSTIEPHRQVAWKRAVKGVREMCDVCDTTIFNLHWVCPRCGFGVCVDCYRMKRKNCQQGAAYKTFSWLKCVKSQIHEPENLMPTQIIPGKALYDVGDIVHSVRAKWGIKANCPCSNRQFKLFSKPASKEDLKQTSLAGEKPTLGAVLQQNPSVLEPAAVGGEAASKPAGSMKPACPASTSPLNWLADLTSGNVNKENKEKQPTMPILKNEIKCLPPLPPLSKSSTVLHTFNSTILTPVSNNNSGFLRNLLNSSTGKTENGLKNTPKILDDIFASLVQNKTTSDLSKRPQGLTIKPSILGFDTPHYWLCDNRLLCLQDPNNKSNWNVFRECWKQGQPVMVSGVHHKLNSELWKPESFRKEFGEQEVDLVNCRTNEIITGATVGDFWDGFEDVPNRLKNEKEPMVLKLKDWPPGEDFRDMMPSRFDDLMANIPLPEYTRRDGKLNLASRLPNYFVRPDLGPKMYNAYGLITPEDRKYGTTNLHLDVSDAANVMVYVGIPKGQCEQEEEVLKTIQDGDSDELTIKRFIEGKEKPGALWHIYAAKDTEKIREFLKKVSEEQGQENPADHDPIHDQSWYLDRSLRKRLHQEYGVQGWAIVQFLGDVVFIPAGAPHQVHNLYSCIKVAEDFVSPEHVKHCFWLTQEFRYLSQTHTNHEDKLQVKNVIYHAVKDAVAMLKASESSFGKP
Assay endpoint: IC50 (µM)
Unit µM implied. Number only.

Query block: Item under review: O=C(O)c1ccnc2c(O)cccc12 [4C8HQ, 4-carboxy-8-hydroxyquinoline] . Reported IC50?
Result block: 15

###

target: UniProt O15054
Assay endpoint: pIC50
pIC50 field: float, defined as -log10 of concentration (mol/L).

Query block: // query pIC50 value for entry O=C(O)c1ccnc2c(O)cccc12 [4C8HQ, 4-carboxy-8-hydroxyquinoline]
Result block: 5.05

###

molecular target: UniProtKB O75164; assay: immunofluorescence of global methylation in HeLa cells overexpressing KDM4A; type: cell-based
Sequence (O75164 whole entry): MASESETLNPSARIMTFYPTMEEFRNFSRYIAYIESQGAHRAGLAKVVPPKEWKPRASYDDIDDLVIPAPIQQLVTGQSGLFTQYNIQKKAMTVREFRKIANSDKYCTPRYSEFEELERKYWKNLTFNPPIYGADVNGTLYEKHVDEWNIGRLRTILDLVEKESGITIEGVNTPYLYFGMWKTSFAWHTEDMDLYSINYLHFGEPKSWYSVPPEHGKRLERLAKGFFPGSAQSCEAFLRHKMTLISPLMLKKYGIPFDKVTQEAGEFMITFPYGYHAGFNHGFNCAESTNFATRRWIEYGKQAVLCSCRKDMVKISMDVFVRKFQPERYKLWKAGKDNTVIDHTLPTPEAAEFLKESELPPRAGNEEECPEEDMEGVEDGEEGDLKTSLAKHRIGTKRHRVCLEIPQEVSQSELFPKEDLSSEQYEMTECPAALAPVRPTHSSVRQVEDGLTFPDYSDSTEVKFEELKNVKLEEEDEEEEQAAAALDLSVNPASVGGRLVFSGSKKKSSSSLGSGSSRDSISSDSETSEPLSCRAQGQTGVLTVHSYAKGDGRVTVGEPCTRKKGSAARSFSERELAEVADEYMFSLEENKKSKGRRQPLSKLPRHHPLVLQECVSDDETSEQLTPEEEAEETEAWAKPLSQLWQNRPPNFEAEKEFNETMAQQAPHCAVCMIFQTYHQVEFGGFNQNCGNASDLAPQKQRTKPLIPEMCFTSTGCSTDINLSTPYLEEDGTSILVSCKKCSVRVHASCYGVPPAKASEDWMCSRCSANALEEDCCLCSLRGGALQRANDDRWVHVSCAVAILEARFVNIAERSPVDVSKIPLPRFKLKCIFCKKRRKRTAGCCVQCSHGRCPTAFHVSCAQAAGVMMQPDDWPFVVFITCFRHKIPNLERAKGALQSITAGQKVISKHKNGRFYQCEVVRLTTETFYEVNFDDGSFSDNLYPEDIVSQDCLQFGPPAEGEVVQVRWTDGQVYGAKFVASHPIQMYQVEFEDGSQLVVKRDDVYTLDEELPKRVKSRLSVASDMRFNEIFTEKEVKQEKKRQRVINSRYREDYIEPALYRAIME
Assay endpoint: pEC50
// returns pEC50 (minus log10 of molar concentration), number only

Query block: Which pEC50 value belongs to COC(=O)c1ccnc(C(=O)OC)c1 [dmPDCA, dimethyl-2,4-pyridinedicarboxylate] ?
Result block: 2.52

###

Target: UniProt O75936
Sequence (O75936 1-387): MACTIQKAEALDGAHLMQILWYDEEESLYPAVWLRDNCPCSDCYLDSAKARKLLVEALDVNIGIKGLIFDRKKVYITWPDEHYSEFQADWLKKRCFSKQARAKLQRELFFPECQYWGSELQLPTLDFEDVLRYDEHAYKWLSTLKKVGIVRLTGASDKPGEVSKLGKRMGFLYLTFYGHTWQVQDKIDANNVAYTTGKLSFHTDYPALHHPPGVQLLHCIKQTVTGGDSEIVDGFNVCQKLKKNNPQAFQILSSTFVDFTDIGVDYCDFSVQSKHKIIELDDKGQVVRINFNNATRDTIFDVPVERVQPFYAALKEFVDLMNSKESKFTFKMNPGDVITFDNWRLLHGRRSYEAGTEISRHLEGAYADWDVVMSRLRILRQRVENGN
Assay: fluoride ion detection based assay
Type: biochemical
Assay endpoint: IC50

Query block: Quick check: IC50 of O=C(O)c1ccc(O)c2ncccc12 [IOX1, 5-carboxy-8-hydroxyquinoline] ?
Result block: 196 µM

###

target: KDM2A (Homo sapiens, UniProt Q9Y2K7); assay: immunofluorescence of global methylation in HeLa cells overexpressing KDM2A; type: cell-based
Sequence (Q9Y2K7 whole entry): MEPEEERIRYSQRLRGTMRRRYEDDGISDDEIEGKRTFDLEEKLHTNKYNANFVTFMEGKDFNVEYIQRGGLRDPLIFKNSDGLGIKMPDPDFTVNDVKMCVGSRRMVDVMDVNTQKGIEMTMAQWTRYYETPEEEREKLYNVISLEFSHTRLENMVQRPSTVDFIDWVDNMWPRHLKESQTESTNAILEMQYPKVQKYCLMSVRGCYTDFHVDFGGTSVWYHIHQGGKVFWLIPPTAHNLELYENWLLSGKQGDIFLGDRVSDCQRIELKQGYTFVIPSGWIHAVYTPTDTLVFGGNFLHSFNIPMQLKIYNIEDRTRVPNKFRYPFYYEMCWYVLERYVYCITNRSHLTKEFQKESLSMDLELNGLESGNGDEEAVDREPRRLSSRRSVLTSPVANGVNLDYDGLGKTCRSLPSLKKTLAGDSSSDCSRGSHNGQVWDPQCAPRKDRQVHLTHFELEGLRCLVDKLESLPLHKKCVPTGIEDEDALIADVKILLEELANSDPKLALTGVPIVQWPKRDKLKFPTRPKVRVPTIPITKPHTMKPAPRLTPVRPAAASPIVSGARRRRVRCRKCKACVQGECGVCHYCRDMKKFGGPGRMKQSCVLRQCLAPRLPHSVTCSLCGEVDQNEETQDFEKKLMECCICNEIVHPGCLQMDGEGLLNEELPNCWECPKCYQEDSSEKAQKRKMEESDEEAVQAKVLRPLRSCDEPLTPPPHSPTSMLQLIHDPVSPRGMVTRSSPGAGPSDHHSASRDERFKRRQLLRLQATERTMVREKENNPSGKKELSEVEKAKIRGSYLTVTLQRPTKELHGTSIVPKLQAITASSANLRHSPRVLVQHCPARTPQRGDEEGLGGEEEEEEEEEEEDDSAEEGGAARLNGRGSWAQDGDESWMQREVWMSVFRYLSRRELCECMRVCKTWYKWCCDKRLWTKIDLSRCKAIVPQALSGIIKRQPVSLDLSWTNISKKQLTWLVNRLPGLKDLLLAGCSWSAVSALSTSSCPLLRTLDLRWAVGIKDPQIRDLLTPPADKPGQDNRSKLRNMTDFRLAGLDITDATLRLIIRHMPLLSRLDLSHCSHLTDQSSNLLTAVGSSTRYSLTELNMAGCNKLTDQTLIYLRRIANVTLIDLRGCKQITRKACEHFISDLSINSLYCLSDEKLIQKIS
Assay endpoint: EC50 (mM)
Numbers only; they are read as mM.

Query block: Would you mind telling me what EC50 value was observed for COC(=O)c1ccnc(C(=O)OC)c1 [dmPDCA, dimethyl-2,4-pyridinedicarboxylate] ?
Result block: 5

###

molecular target: KDM6B (Homo sapiens); assay: immunofluorescence of global methylation in HeLa cells overexpressing KDM6B; format: cell-based; settings: HeLa cells overexpressing KDM6B, immunofluorescence
Assay endpoint: EC50 (mM)
Quick reminder: number only, in mM, skip the unit.

Query block: Given the entry COC(=O)CNC(=O)C(=O)OC , report its measured EC50.
Result block: 1.2

###

tested on: KDM3, KDM4 and KDM6 subfamilies; assay: IC50 summary for KDM subfamilies; assay type: biochemical, human
pIC50: −log10 of the molar value.
Assay endpoint: pIC50

Query block: Reported pIC50, compound O=C(O)c1ccc(O)c2ncccc12 [IOX1, 5-carboxy-8-hydroxyquinoline] : ____
Result block: ≥ 6.00

###

biological target: PHF8 (Homo sapiens, UniProt Q9UPP1); test: MS-based IC50 assay; assay type: biochemical
Sequence (Q9UPP1 whole entry): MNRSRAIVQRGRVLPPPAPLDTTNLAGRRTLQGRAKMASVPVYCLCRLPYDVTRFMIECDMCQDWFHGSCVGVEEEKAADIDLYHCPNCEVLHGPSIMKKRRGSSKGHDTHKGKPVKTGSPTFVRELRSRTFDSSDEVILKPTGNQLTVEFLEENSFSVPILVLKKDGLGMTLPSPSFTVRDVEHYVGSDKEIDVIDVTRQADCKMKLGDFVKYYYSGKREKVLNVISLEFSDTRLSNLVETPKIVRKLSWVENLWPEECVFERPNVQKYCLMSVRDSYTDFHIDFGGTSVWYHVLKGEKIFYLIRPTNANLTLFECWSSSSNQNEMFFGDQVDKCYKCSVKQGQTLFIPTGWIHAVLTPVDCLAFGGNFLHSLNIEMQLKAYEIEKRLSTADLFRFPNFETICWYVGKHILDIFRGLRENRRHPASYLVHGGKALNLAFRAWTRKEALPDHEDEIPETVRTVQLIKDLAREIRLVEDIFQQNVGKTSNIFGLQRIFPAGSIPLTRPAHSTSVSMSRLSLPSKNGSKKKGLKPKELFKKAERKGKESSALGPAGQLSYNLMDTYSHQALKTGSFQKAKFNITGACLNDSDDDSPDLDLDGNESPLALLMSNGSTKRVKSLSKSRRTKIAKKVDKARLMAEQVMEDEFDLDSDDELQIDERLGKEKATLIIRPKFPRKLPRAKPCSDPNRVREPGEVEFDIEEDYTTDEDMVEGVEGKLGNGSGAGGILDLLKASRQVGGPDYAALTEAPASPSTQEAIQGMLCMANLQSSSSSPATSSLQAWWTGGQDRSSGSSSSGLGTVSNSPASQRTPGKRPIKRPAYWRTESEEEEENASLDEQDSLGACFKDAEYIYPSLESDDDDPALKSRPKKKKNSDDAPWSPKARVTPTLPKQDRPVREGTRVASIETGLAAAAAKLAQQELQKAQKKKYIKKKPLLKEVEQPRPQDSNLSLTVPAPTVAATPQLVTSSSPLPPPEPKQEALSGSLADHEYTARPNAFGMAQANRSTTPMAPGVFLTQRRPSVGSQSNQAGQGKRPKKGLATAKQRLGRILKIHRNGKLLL
Assay endpoint: IC50 (µM)
Express your answer in µM, writing the number without its unit.

Query block: GET /values?readout=IC50&item= O=C(O)c1ccc(O)c2ncccc12 [IOX1, 5-carboxy-8-hydroxyquinoline]
Result block: 12.6

Query block: Would you mind telling me what IC50 value was observed for O=C(O)c1ccnc2c(O)cccc12 [4C8HQ, 4-carboxy-8-hydroxyquinoline] ?
Result block: 17
